The origin of these recorded values is paper PMC3058180.

test system: A/Wuhan/359/95 E119V (oseltamivir-resistant); format: cell-based, influenza A virus; details: read-out: IC50 (nM of Zanamivir)
assayReadout: IC50
Please give the number followed by its unit.

Ask: Enter IC50 (test system A/Wuhan/359/95 E119V (oseltamivir-resistant)) for CC(=O)N[C@H]1[C@H]([C@H](O)[C@H](O)CO)OC(C(=O)O)=C[C@@H]1N=C(N)N
Reply: 48000 nM
